Tested on: Mycolicibacterium smegmatis
experiment_description: Antimycobacterial activity against Mycobacterium smegmatis atR9 in liquid medium after 48 hrs by two-fold serial dilution method
Format: functional
condition_details: atR9, 48 h
value_kind: MIC (mg/L)
Entry rule: numbers only, all in mg/L.

Reported MIC for Cc1cc(C)n(-c2nnc3ncc(SC(C)C)n3n2)n1 : what is it?
256

Let us now turn to c1cn(-c2nnc3nccn3n2)cn1
32

Let us now turn to Cc1cn(-c2nnc3ncc(SC(C)C)n3n2)cn1
128

====

System: Mycobacterium tuberculosis
experiment_description: Antimycobacterial activity against Mycobacterium tuberculosis H37Rv in liquid medium
Type: functional
For each of the molecules below, state its MIC.
Entry rule: numbers only, all in µM.

Reported MIC for Cc1cn(-c2nnc3ncc(SC(C)C)n3n2)cn1 : what is it?
90.8

Let us now turn to Cc1cc(C)n(-c2nnc3ncc(Sc4ccccc4)n3n2)n1
3.1

Let us now turn to Cc1cc(C)n(-c2nnc3ncc(SC(C)C)n3n2)n1
3.5

Let us now turn to c1cn(-c2nnc3nccn3n2)cn1
134

Let us now turn to Cc1cc(C)n(-c2nnc3ncc(SCc4ccccc4)n3n2)n1
3
